assay system: GST-MSI2 (full-length human MSI2) (Homo sapiens, UniProt Q96DH6)
Construct: full-length, N-terminal GST-Flag tag kept (pGEX6P3), expressed in E. coli BL21(DE3)
Sequence (Q96DH6 whole entry): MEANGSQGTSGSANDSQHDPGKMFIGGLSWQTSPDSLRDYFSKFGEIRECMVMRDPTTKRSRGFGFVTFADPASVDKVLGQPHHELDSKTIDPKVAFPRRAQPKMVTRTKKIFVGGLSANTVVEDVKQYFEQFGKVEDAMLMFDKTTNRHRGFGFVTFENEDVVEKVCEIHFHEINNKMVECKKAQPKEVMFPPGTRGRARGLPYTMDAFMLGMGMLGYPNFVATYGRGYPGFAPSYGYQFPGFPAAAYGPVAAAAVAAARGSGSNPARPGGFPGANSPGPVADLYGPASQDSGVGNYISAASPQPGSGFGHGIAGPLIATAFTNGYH
procedure details: fluorescence polarization, RNA-binding inhibition
Type: biochemical
pIC50: −log10 of the molar value.

{"molecule smiles": "Cc1cc2nc3c(=O)[nH]c(=O)nc-3n(C)c2cc1CO", "pIC50": 4.60}

* * *

assay system: GST-SRSF2 (Homo sapiens)
Construct: commercial GST-tagged recombinant protein
Sequence (Q01130 2-221): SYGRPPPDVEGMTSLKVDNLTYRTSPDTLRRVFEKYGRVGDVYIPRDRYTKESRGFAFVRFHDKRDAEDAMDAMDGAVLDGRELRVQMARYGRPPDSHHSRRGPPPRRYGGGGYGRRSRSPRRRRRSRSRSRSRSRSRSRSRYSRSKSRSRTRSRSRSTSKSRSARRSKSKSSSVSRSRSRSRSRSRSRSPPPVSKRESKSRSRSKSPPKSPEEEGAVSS
procedure details: microscale thermophoresis
pKd: −log10 of the molar value.

{"molecule smiles": "Cc1cc2nc3c(=O)[nH]c(=O)nc-3n(C)c2cc1C=O", "pKd": 3.72}
